Catalogue of compounds with associated cytotoxicity at 10 µM
run description: Toxicity liver stage against HepG2, at 10uM
Format: cell-based
Parameters: test concentration 10 uM, cell line HepG2-A16-CD81EGFP
cond: human, HepG2-A16-CD81EGFP cells; read-out: INHIBITION
Give the quantity in %, number only.

>>> result_value("CCc1noc(C(C)N2CCN(c3ncnc4sccc34)CC2)n1 (stereo unspecified)")
56.3
>>> result_value("Cc1cccc(CN2C(=O)CC[C@@H]3[C@H]2CCN3Cc2ccc(F)cc2)n1")
-72.1
>>> result_value("NC(=O)C1CN(C(=O)Nc2ccccc2-c2cccs2)CCO1 (stereo unspecified)")
-4.84
>>> result_value("CC(C#N)NS(=O)(=O)c1ccc2c(c1)N(C)CCC2 (stereo unspecified)")
-4.28
>>> result_value("CCN(CC)C(CNC(=O)c1cccnc1-n1cncn1)c1ccsc1 (stereo unspecified)")
-146

Now let's try a different one.
cytotoxicity at 10 µM recorded for this compound, CS(=O)(=O)CC(=O)N(CCN1CCOCC1)Cc1ccco1 , is 3.11

Data credit: ChEMBL document CHEMBL4513216
